Molecular target: HIV-1 protease resistant mutant M46I (Human immunodeficiency virus type 1 group M subtype B, UniProt P04585, M534I)
Construct: The active HIVPr is a homodimer of 99-residue monomers; made in house
Format: biochemical
Conditions: M46I mutant; with standard error
Experimental Endpoint: Ki
Quote the value and follow it with the unit of measurement.

## Task Field request: Ki | item: CC(C)CN(CC(O)C(Cc1ccccc1)NC(=O)C(Cc1ccccc1)CC(O)C(Cc1ccccc1)NC(=O)OC1CCCO1)S(=O)(=O)c1cccc(O)c1 (stereo not shown) [UIC-98-056]
## Result 3.16 nM

----------
Biological target: HIV-1 protease resistant mutant L90M (Human immunodeficiency virus type 1 group M subtype B, UniProt P04585, L578M)
Construct: The active HIVPr is a homodimer of 99-residue monomers
Conditions: L90M mutant; with standard error
Experimental Endpoint: Ki
Quote the value and follow it with the unit of measurement.

## Task Field request: Ki | item: CC(C)CN(CC(O)C(Cc1ccccc1)NC(=O)C(Cc1ccccc1)CC(O)C(Cc1ccccc1)NC(=O)OC1CCCO1)S(=O)(=O)c1cccc(O)c1 (stereo not shown)
## Result 2.1 nM

----------
Molecular target: HIV-1 protease resistant mutant L10I (Human immunodeficiency virus type 1 group M subtype B, UniProt P04585, L498I)
Construct: The active HIVPr is a homodimer of 99-residue monomers
Conditions: L10I mutant; with standard error
Experimental Endpoint: pKi
Give bare numbers, as −log10 of the molar value.

## Task Field request: pKi | item: CC(C)CN(CC(O)C(Cc1ccccc1)NC(=O)C(Cc1ccccc1)CC(O)C(Cc1ccccc1)NC(=O)OC1CCCO1)S(=O)(=O)c1cccc(O)c1 (stereo not shown) [UIC-98-056]
## Result 8.99

----------
Biological target: wild type HIV-1 protease (Human immunodeficiency virus type 1 group M subtype B)
Construct: The active HIVPr is a homodimer of 99-residue monomers
Experiment: Ki determination, wild-type HIV-1 protease
Conditions: W.T. HIV-1 protease; with standard error
Experimental Endpoint: Ki (nM)
One number for each entry, in nM.

## Task Field request: Ki | item: CC(C)CN(CC(O)C(Cc1ccccc1)NC(=O)C(Cc1ccccc1)CC(O)C(Cc1ccccc1)NC(=O)OC1CCCO1)S(=O)(=O)c1cccc(O)c1 (stereo not shown) [UIC-98-056]
## Result 6.2

Origin of measurements: patent US6969731B1
